# System: TO-N3-2 (biotin conjugate)
# protocol description: pull-down binding Z-score (relative to library population); higher = stronger binding
# experimental conditions: RNA library: Library-2
measurement type: pull-down binding Z-score

INSERT INTO assay_data (residue_string, tgt, endpoint_value) VALUES
  ('AAAUUGCCGAUAAGUAUGUCCGCAAUUU', 'TO-N3-2 (biotin conjugate)', -1.13),
  ('CAAGGAAGAGUCACAGUCUCUUCCUUG [hsa-mir-659]', 'TO-N3-2 (biotin conjugate)', -0.539),
  ('AUUUCCCAAAGUUGGGAAAA [hsa-mir-320b-2]', 'TO-N3-2 (biotin conjugate)', -1.08),
  ('CCUGGAGAGCUGCUGUCUCCAG [hsa-mir-6746]', 'TO-N3-2 (biotin conjugate)', 0.355),
  ('GUGCAGAAUGAAUUCUCGUAACUACAUAGCACAAGUAGAUGUAGUUAACUUUAAUCUCAC', 'TO-N3-2 (biotin conjugate)', -0.275),
  ('ACAACAACCAUAAAACCAGUUACUUAUAAAUUGGAUGGUGUUGU', 'TO-N3-2 (biotin conjugate)', -1.37),
  ('AGCUGUUGAACUGGGAACCUGCU [hsa-mir-31]', 'TO-N3-2 (biotin conjugate)', 0.794),
  ('UCCACACUGACAAGGGCCGUGGGG [hsa-mir-3191]', 'TO-N3-2 (biotin conjugate)', 0.967),
  ('AGGCUGGUCUCAAACUCCU [hsa-mir-5096]', 'TO-N3-2 (biotin conjugate)', 0.128),
  ('CAGGCCAUCACAAAUGCCACAGCUUGAGUAAACUGUGCAGCCUG [3-way model-2_DENV2]', 'TO-N3-2 (biotin conjugate)', -0.0801),
  ('AAAUCCCGUUAAUAAGUAAGAGGAUUU [hsa-mir-2113]', 'TO-N3-2 (biotin conjugate)', 0.758),
  ('GGUGUUUUAACUGCUGUGGUUAUACCUACUAAAAAGGCUGGUGGCACUACUGAAAUGCU', 'TO-N3-2 (biotin conjugate)', -0.153),
  ('GAUCCGGGAACCCACAGCCCCGUUC [hsa-mir-6783]', 'TO-N3-2 (biotin conjugate)', 1.08),
  ('CUAGUUGUGAUGCAAUCAUGACUAG', 'TO-N3-2 (biotin conjugate)', -1.39),
  ('AAGAAGCUGCGCUGUGCACCUUUUU [DMSMaPseq_invitro_SARS-CoV-2_Motif_178]', 'TO-N3-2 (biotin conjugate)', 0.126),
  ('GCGCUGCCAGAAACUGGCCAGCGC [bulge-C]', 'TO-N3-2 (biotin conjugate)', -0.547),
  ('UUUAGAUUUAAAUAGUGAUUGUCUAG [hsa-mir-29b-1]', 'TO-N3-2 (biotin conjugate)', -0.27),
  ('CUGCUGAAUCUUCAGAAAGG [hsa-mir-3142]', 'TO-N3-2 (biotin conjugate)', 0.135),
  ('CUUAAUAGAUUAAUAUUUGUAAG [hsa-mir-506]', 'TO-N3-2 (biotin conjugate)', -1.02),
  ('UGAAGGUCACCAUGUUCUCCUUG [hsa-mir-3187]', 'TO-N3-2 (biotin conjugate)', -0.229),
  ('CUCAAACCCGUCCUUGAUUGGCUUGAAGAGAAGUUUAAGGAAGGUGUAGAG [DMSMaPseq_invitro_SARS-CoV-2_Motif_41]', 'TO-N3-2 (biotin conjugate)', -0.0884),
  ('UGGCUGUAGGGCAGCAGUCA [hsa-mir-8079]', 'TO-N3-2 (biotin conjugate)', 0.479),
  ('CACGCCGCGCCGCCGGGUCCCUCCUCCCCGGAGAGGCUG [hsa-mir-4674]', 'TO-N3-2 (biotin conjugate)', 1.56),
  ('UGAGCAGGGUCCACACCAAGUCGUGUUCA [hsa-mir-27a]', 'TO-N3-2 (biotin conjugate)', 1.09),
  ('GUAGAUUGAAAGCCCUAAUUUUAC [hsa-mir-3941]', 'TO-N3-2 (biotin conjugate)', 0.452),
  ('GGUUGCUGGAGGUCAGC [hsa-mir-6871]', 'TO-N3-2 (biotin conjugate)', 0.785),
  ('CGGUGUGCAAAUGUGUGUGUGCGGUGUUAUGCCG [hsa-mir-4442]', 'TO-N3-2 (biotin conjugate)', -0.316),
  ('CCAUUCUUCGUAAGGGUGG [DMSMaPseq_invitro_SARS-CoV-2_Motif_28]', 'TO-N3-2 (biotin conjugate)', -0.66),
  ('GGUACUUUAUAAUUUCAAAAAGUCCC [hsa-mir-361]', 'TO-N3-2 (biotin conjugate)', -1.41),
  ('UGACUCAGAUCU [hsa-mir-759]', 'TO-N3-2 (biotin conjugate)', -0.155),
  ('ACGUGACCUCCUGGGCCUG [hsa-mir-6770-1_6770-3_6770-2]', 'TO-N3-2 (biotin conjugate)', 1),
  ('UUUGUACGGCACUGUGGCCACGUCCAAA [hsa-mir-497]', 'TO-N3-2 (biotin conjugate)', 0.0542),
  ('UGAGUGUGACAUACCCAUUGGUGCAGGUAUAUGCGCUAGUUAUCAGACUCA', 'TO-N3-2 (biotin conjugate)', 0.541),
  ('GUUUCGGAAGAGAC', 'TO-N3-2 (biotin conjugate)', -0.706),
  ('UCCCAGGCCCUUCCUCCAAUACUGGGA [hsa-mir-4666b]', 'TO-N3-2 (biotin conjugate)', -0.446),
  ('UCCAUUUUUGGGUGUUUAUUACCACAAAAACAACAAAAGUUGGA [SHAPE_invitro_SARS-CoV-2_Motif_398]', 'TO-N3-2 (biotin conjugate)', -0.616);
